Test system: U2OS
Test: Multiplex assay against U2OS
Type: toxicity, cell-based
Settings: human, 12 h, 1 µM, compound concentration 1 uM, replicate 1
The label met is reserved for Total Cell Count strictly under 200; not met covers values equal to or above it.

- compound: "NC(=O)c1ccc2nc(-c3ccc(C4(N)CCC4)cc3)c(-c3ccccc3)n2n1 [BAY-1125976]"
  tested target: "U2OS"
  qualitative label: "not met"
- compound: "C=CC(=O)Nc1cc(-n2c(=O)ccc3cnc4ccc(-c5ccc(NS(C)(=O)=O)cc5)cc4c32)ccc1C"
  tested target: "U2OS"
  qualitative label: "met"
- compound: "Oc1cccc(-c2nc(N3CCOCC3)c3oc4ncccc4c3n2)c1 [PI-103]"
  tested target: "U2OS"
  qualitative label: "not met"
- compound: "N#CCNC(=O)c1ccc(-c2ccnc(Nc3ccc(N4CCOCC4)cc3)n2)cc1 [MOMELOTINIB]"
  tested target: "U2OS"
  qualitative label: "not met"
- compound: "Cl.Cn1c2c(c3ccc(Cl)c(Cl)c31)C(C#N)C1(CCNCC1)NC2=O (configuration not stated)"
  tested target: "U2OS"
  qualitative label: "met"
- compound: "N#Cc1cccc(C(=O)Nc2cc(-c3ccccc3)nn2-c2ccccc2)c1"
  tested target: "U2OS"
  qualitative label: "met"
- compound: "C[C@@H](Oc1cc(-n2cnc3ccc(CN4CCN(C)CC4)cc32)sc1C(N)=O)c1ccccc1C(F)(F)F [GSK-461364]"
  tested target: "U2OS"
  qualitative label: "met"
- compound: "CC(/C=C1\\SC(=S)N(CCCC(=O)Nc2ccc(C(=O)O)c(O)c2)C1=O)=C\\c1ccccc1"
  tested target: "U2OS"
  qualitative label: "met"
- compound: "CC(C)[C@H](CO)Nc1nc(Nc2cccc(Cl)c2)c2ncn(C(C)C)c2n1 [PURVALANOLA]"
  tested target: "U2OS"
  qualitative label: "not met"
- compound: "CC[C@@H]1C(=O)N(C)c2cnc(Nc3ccc(C(=O)NC4CCN(C)CC4)cc3OC)nc2N1C1CCCC1 [BI-2536]"
  tested target: "U2OS"
  qualitative label: "met"
